System: PAM 212 keratinocytes
Assay: PAM 212 keratinocyte growth inhibition assay (photobiological activity; Toxicity, Table I)
Assay type: cell-based
Settings: Mus musculus, PAM212, light or radiation study; with UVA (320-400 nm) 1.28 J/square centimeter after 30 minutes incubation; 4-5 days of growth; read-out: Photo-toxicity (IC50 values), concentration at which photoactivated test compound inhibited growth by 50%
Mark Yes for IC50 under 3000 nM, No if at or over.

Some solved entries appear below for comparison.
INSERT INTO measurements (molecule, label_value) VALUES
  ('Cc1cc(=O)oc2c(C)c(O)c([N+](=O)[O-])cc12 [Example 1, 6-Nitro-4,8-dimethyl-7-hydroxycoumarin]', 'No'),
  ('C=CCOc1c([N+](=O)[O-])cc2c(C)cc(=O)oc2c1C', 'No'),
  ('Cc1cc(=O)oc2c(C)c3c(cc12)C(C[n+]1ccccc1)CO3 (centres unmarked)', 'Yes'),
  ('Cc1c(Br)c(=O)oc2c(C)c3c(cc12)C(C[n+]1ccccc1)CO3 (centres unmarked)', 'No'),
  ('Cc1cc(=O)oc2c(C)c3c(cc12)C(CI)CO3 (centres unmarked)', 'Yes');

Kindly review the next molecule as well.
Regarding `C=CCOc1c(N)cc2c(C)cc(=O)oc2c1C` , kindly confirm whether its IC50 is beneath 3000 nM. No

This collection of values is drawn from patent US6177424A.
